Test: Human HepG2 cell viability assay in 384 well format
Assay type: toxicity, cell-based
Design: dose 125 nL, time 70.5 hour; concentration not given beside the values
Conditions: HepG2 cells, read-out: Inhibition
So I've got a bunch of molecules here, and I need their cytotoxicity at 70.5 h values.

{"molecule": "O=C(c1cnccn1)N1CCc2ncnc(C3CCOC3)c2CC1 (stereo unspecified)", "valueReported": "-9.35%"}
{"molecule": "CCc1nc(NCCCOC)c2c(n1)c(C)nn2C", "valueReported": "-13.4%"}
{"molecule": "CN(Cc1cccc(OC(F)F)c1)Cc1nc2c(cnn2C)c(=O)[nH]1", "valueReported": "2.1%"}
{"molecule": "O=C(NCc1cccnc1)C1CN(c2cnc3ccccc3n2)CCN1 (stereo unspecified)", "valueReported": "19.1%"}
{"molecule": "CN1CCN(C2CCN(CC(O)c3ccccc3)CC2)C1=O (stereo unspecified)", "valueReported": "4.73%"}

Q) Return reported cytotoxicity at 70.5 h; argument: Cc1noc(C(C)Nc2ccc(N3CCOCC3)cc2C)n1 (stereo unspecified)
A) -4.53%

* * *

Experiment: Human HepG2 cell viability assay in 384 well format
Format: toxicity, cell-based
Design: dose 125 nL, time 70.5 hour; concentration not given beside the values
Details: HepG2 cells, read-out: Inhibition
quantity: cytotoxicity at 70.5 h (%)
One number for each entry, in %.

{"compound": "Cc1cc(C)n(CC2CCCN2Cc2c(C)noc2C)n1 (stereo unspecified)", "valueReported": 34.3}
{"compound": "CN(C)S(=O)(=O)N1C[C@H](Oc2cccnc2)[C@H]2OCCC[C@H]21", "valueReported": 31.1}
{"compound": "CCCc1nnc(C(=O)N(C)Cc2cnc3ccccn23)o1", "valueReported": 33.7}
{"compound": "Cc1nc(N2CCC(CC(=O)N3CCCC3)CC2)c2cnn(C)c2n1", "valueReported": -3.28}
{"compound": "Cc1cccc(C(=O)NC(C)CN2CCCC2=O)n1 (stereo unspecified)", "valueReported": 21}

Below is a list of compounds. For each, state its recorded cytotoxicity at 70.5 h.
1. CCCc1nc(N(C)CCN2CCCCCC2)c2cnn(C)c2n1
2. Cn1ncc(N2CCN(Cc3ccc(S(C)(=O)=O)cc3)CC2)cc1=O
3. Cc1cc(C)c(CNC(=O)NCCOc2ccc3c(c2)CCC3)c(=O)[nH]1
4. CCc1nc(C)sc1CN1CC[C@@](O)(CCOC)[C@H](C)C1
5. Cc1cnc(C)c(N2CCCC(CO)(Cc3ccccc3C)C2)n1 (stereo unspecified)
6. O=c1ccc(-c2cccs2)nn1CN1CCOC(c2ccccc2)C1 (stereo unspecified)

A)
1: -11; 2: -5.42; 3: -9.44; 4: -5.48; 5: 11.4; 6: -21.3

* * *

Experiment: Human HepG2 cell viability assay in 384 well format
Assay type: toxicity, cell-based
Design: dose 125 nL, time 70.5 hour; concentration not given beside the values
Details: HepG2 cells, read-out: Inhibition
quantity: cytotoxicity at 70.5 h (%)
Numbers only, in %.

{"molecule": "Cc1nc(C)c(C(=O)N2CCC(O)(Cn3ccc4ccncc43)CC2)s1", "unitText": "%", "cytotoxicity at 70.5 h": 1.41}
{"molecule": "O=c1[nH]c(-c2ccncc2)ncc1-c1ccnc(N2CCOCC2)n1", "unitText": "%", "cytotoxicity at 70.5 h": -2.39}
{"molecule": "CN1CC=C(c2noc(CCC(=O)N3CCOCC3)n2)CC1", "unitText": "%", "cytotoxicity at 70.5 h": -5.23}

Please give cytotoxicity at 70.5 h for each item listed below.
1. CC(C)n1nc2c(cc1=O)CN(Cc1nc3ccccc3o1)CC2
2. CCc1ncc2c(n1)CN(Cc1nc(-c3ccccn3)no1)CC2
3. CNc1ncccc1CN1CCN2CCN(C)CC2C1 (stereo unspecified)
4. CCc1noc(CN2CCN(C(=O)Cc3ccc(F)cc3)CC2)n1
5. O=C(NCc1nc[nH]n1)c1cc(COc2cccc(C(F)(F)F)c2)[nH]n1
6. C[C@@H]1CN(Cc2ccncc2)C[C@]1(C)O

A)
[10.1, 33.7, -7.61, -5.71, 21.3, -18]

Could you report cytotoxicity at 70.5 h for every entry in the following list?
1. O=C(CSc1ccccn1)NCc1ccc2c(c1)CCC(=O)N2
2. CC(=O)N(C)C1CCN(C(=O)c2cccc3c2ccn3C)CC1

A)
1: 40.7; 2: 24.8

* * *

Experiment: Human HepG2 cell viability assay in 384 well format
Assay type: toxicity, cell-based
Parameters: dose 125 nL, time 70.5 hour; concentration not given beside the values
Conditions: HepG2 cells, read-out: Inhibition
Provide the reported cytotoxicity at 70.5 h of each item.
Answers are plain numbers, in %.

{"compound": "CN(c1nc(Cn2cnccc2=O)cs1)C1CC1", "valueReported": -4.18}
{"compound": "CC(C)c1noc(CCCC(=O)Nc2cccc(F)c2)n1", "valueReported": 15.5}
{"compound": "CCOC(=O)c1nc(CC(=O)Nc2ccccc2)no1", "valueReported": -17.6}

Need cytotoxicity at 70.5 h for each of these compounds.
1. O=S(=O)(NC1CCC2(CC1)OCCO2)c1cccc(Br)c1
2. Cc1nc(C)c(C)c(NCCSc2ccccn2)n1
3. O=C(CCn1cncn1)NCC(c1ccco1)N1CCCCC1 (configuration not stated)
4. COC(=O)c1ccc(N2CCN(CC(=O)NC(N)=O)C(C)C2)cc1 (configuration not stated)
5. CCc1nc(CCNC(=O)NC2CCSCC2)cs1
6. Cc1cc(C)n(C2CCCN(C(=O)CN(C)c3cnccn3)C2)n1 (configuration not stated)
7. COc1ccc(N2CCC(C(=O)/N=c3/[nH]ccs3)CC2)nn1
8. COCCN1C(=O)[C@H]2CC[C@@H]1CN(C(=O)Cc1c(F)cccc1Cl)C2

A)
[12, -6.54, 7, -3.82, 5.18, -0.822, -7.23, -8.61]

Q) Query: cytotoxicity at 70.5 h; subject: O=C(CN1C=Nc2ccccc2S1(=O)=O)NCCCc1ccccc1
A) -12.6

* * *

Please go through the items and note down their cytotoxicity at 70.5 h.
Assay: Human HepG2 cell viability assay in 384 well format
Assay type: toxicity, cell-based
Set-up: dose 125 nL, time 70.5 hour; concentration not given beside the values
Conditions: HepG2 cells, read-out: Inhibition
Give bare numbers, in %.

Sample answers from the record:
{"compound": "CO[C@H]1CN(C(=O)c2cccnc2)[C@@H]2CCCO[C@H]12", "cytotoxicity at 70.5 h, %": -11.9}
{"compound": "O=C(CCn1cnnc1)N1CCCC(c2ncc[nH]2)C1 (stereo unspecified)", "cytotoxicity at 70.5 h, %": -2.12}
{"compound": "Cn1cc(C(=O)Nc2cc(F)ccc2OCC2CCCO2)ccc1=O (stereo unspecified)", "cytotoxicity at 70.5 h, %": -7.6}

Look at each compound and report its cytotoxicity at 70.5 h.
1. O=C(c1cccnc1N1CCN(Cc2ccoc2)CC1)N1CCCCC1
2. Cc1cc(C(=O)Nc2cnn(CC(F)(F)F)c2)nc(N(C)C)n1
3. COc1cc(F)ccc1C(C(=O)O)N(C)Cc1ccon1 (stereo unspecified)
4. COc1ccc(CNC(=O)CNc2cc3c(cc2Cl)OCCO3)cc1

A)
1: -0.284; 2: -1.64; 3: -7.03; 4: -0.455

* * *

Experiment: Human HepG2 cell viability assay in 384 well format
Type: toxicity, cell-based
Design: dose 125 nL, time 70.5 hour; concentration not given beside the values
Details: HepG2 cells, read-out: Inhibition
quantity: cytotoxicity at 70.5 h (%)
Numbers only, in %.

{"compound": "O=C(NCc1cccnc1)[C@@H]1CC[C@@H]2[C@@H](CCN2c2ncccn2)O1", "cytotoxicity at 70.5 h, %": 15.1}
{"compound": "CS(=O)(=O)N1C[C@@H]2CC[C@H](C1)N(Cc1ccc3nsnc3c1)C2", "cytotoxicity at 70.5 h, %": 18.3}
{"compound": "CC(C)NC(=O)CN1CCC2(CC1)OCCO2", "cytotoxicity at 70.5 h, %": -2.05}
{"compound": "C[C@@H]1CN(c2cccnn2)CC[C@@]1(O)C1CCOCC1", "cytotoxicity at 70.5 h, %": -4.49}
{"compound": "N#Cc1cccnc1OC1CCN(C(=O)c2cc(C3CC3)on2)CC1", "cytotoxicity at 70.5 h, %": -6.54}
{"compound": "CCc1cc(O)nc(C2CCCN2C(=O)c2cccnc2)n1 (centres undefined)", "cytotoxicity at 70.5 h, %": 20.7}
{"compound": "CCOCC1CC2(CCN(C(=O)c3ncccn3)CC2)CO1 (centres undefined)", "cytotoxicity at 70.5 h, %": -10.5}
{"compound": "CC(c1cccnc1)N1CCN(CCc2ccccn2)CC1 (centres undefined)", "cytotoxicity at 70.5 h, %": -0.575}

Can you give me cytotoxicity at 70.5 h for all of these, one by one?
1. CNC(=O)c1cn[nH]c1C1CCN(Cc2sccc2C)C1 (centres undefined)
2. OCC1CCCCN1Cc1nc(Cc2cccc(F)c2)no1 (centres undefined)
3. CCOCC1CN(S(=O)(=O)c2cccc(C)c2)Cc2nccn2C1 (centres undefined)

A)
1. -5.33
2. -12.1
3. -8.99

Would you mind listing cytotoxicity at 70.5 h for each of the following compounds?
1. O=C(NCCO)c1sc2ncccc2c1C1CNCCO1 (centres undefined)
2. COc1cccc(OCC2CCCN(C(=O)c3ncc(F)cc3F)C2)c1 (centres undefined)
3. COc1cccc(N2CCN(C(=O)CCO)CC2=O)c1
4. Cc1ccc(NC(=O)NCCCn2nc3ccccn3c2=O)cc1
5. NC(=O)COCCNC(=O)Nc1sc2ccccc2c1Cl
6. CC1CN(CC(=O)N2CCOCC2)CCN1Cc1nccn1C (centres undefined)
7. Cc1ccc(OC2CCN(S(=O)(=O)N(C)C)CC2)nc1
8. CCn1cc(C2CCN(Cc3ccnc(N(C)C)c3)CC2)cn1

A)
-4.56
1.3
-8.46
-0.527
-9.32
-2.16
-12.1
-4.12
